# Subject of test: BRD4-BD1 (Homo sapiens (Human))
# Assay notes: BRD4 AlphaScreen Assay (Example A2), BRD4-BD1
# Format: binding
# Condition description: Assay A2, AlphaScreen, BRD4-BD1; read-out: BRD4 BD-1 enzyme IC50
Structures can show the parent of a compound that is named as a salt.
Readout kind: IC50

Can you share its IC50? I mean this molecule: Cc1noc(C)c1-c1ccc2nc(C3CCN(C(=O)OC(C)(C)C)CC3)n3c2c1OC[C@@H]3c1ccccn1 < 100 nM

Now the molecule Cc1noc(C)c1-c1ccc2nc([C@@H](O)CO)n3c2c1OC[C@@H]3c1ccccn1 < 100 nM

Now the molecule COC(=O)c1ncccc1C1COc2c(-c3c(C)noc3C)ccc3[nH]c(=O)n1c23 (racemic) < 100 nM

Now the molecule Cc1noc(C)c1-c1ccc2nc(C3CCN(C(=O)C4CC4)CC3)n3c2c1OC[C@@H]3c1ccccn1 < 100 nM

Now the molecule Cc1noc(C)c1-c1ccc2nc(C(=O)N(C)C)n3c2c1OC[C@@H]3c1ccccn1 < 100 nM

Now the molecule Cc1noc(C)c1-c1cc(C(C)O)c2[nH]c(=O)n3c2c1OC[C@@H]3c1ccccn1 (single isomer, unassigned) [Example 144A] 100 to 1000 nM

Now the molecule Cc1noc(C)c1-c1ccc2[nH]c(=O)n3c2c1CCC3c1ccccn1 (centres unmarked) [Example 123, trifluoroacetate] 100 to 1000 nM

Now the molecule Cc1noc(C)c1-c1cc(Br)c2[nH]c(=O)n3c2c1OCC3c1ccccn1 (single isomer, unassigned) [Example 267B] < 100 nM

Now the molecule Cc1noc(C)c1-c1cc(C2=CCN(C(=O)OC(C)(C)C)CC2)c2[nH]c(=O)n3c2c1OC[C@@H]3c1ccccn1 [Example 83, 2,2,2-trifluoroacetate] < 100 nM

Now the molecule Cc1noc(C)c1-c1cc(Br)c2[nH]c(=O)n3c2c1OCC3c1ccccn1 (single isomer, unassigned) [Example 267A] 1000 to 10000 nM

Now the molecule Cc1noc(C)c1-c1cc(CN)c2[nH]c(=O)n3c2c1OC[C@@H]3c1ccccn1 [Example 137, bis(trifluoroacetate)] 1000 to 10000 nM

Now the molecule Cc1noc(C)c1-c1cc(C#N)c2[nH]c(=O)n3c2c1OCC3c1ccccn1 (centres unmarked) [Example 269A] < 100 nM

Now the molecule Cc1noc(C)c1-c1cc(CNC(=O)CN(C)C)c2[nH]c(=O)n3c2c1OC[C@@H]3c1ccccn1 100 to 1000 nM

Now the molecule Cc1noc(C)c1-c1ccc2[nH]c(=O)n3c2c1OCC3c1cccc[n+]1[O-] (centres unmarked) < 100 nM

Now the molecule Cc1cnn(C)c1-c1ccc2[nH]c(=O)n3c2c1OCC3c1ccccn1 (centres unmarked) 1000 to 10000 nM

Now the molecule Cc1noc(C)c1-c1ccc2[nH]c(=O)n3c2c1OC(CO)C3c1ccccn1 (single isomer, unassigned) [Example 62B] < 100 nM

Now the molecule Cc1noc(C)c1-c1cc(F)c2[nH]c(=O)n3c2c1OCC3c1ccccn1 (centres unmarked) [Example 265A] 1000 to 10000 nM

Now the molecule Cc1noc(C)c1-c1ccc2nc(N3CC(NC(=O)C(C)C)C3)n3c2c1OC[C@@H]3c1ccccn1 < 100 nM

Now the molecule Cc1noc(C)c1-c1ccc2[nH]c(=O)n3c2c1OCC3c1cccnc1C#N (racemic) 100 to 1000 nM

Now the molecule Cc1noc(C)c1-c1ccc2nc(C(C)O)n3c2c1OC[C@@H]3c1ccccn1 (some centres unmarked) < 100 nM

Now the molecule CCOC(=O)/C=C/c1cc(-c2c(C)noc2C)c2c3c1[nH]c(=O)n3[C@@H](c1ccccn1)CO2 [Example 86, 2,2,2-trifluoroacetate] 100 to 1000 nM

Now the molecule Cc1noc(C)c1-c1cc(F)c2nc(N3CCC(O)C3)n3c2c1OCC3c1cccnc1 (centres unmarked) < 100 nM

Now the molecule Cc1noc(C)c1-c1ccc2[nH]c(=O)n3c2c1OCC3c1ccc(F)cn1 (centres unmarked) < 100 nM

Now the molecule Cc1noc(C)c1-c1cc(CNC(=O)NC(C)C)c2[nH]c(=O)n3c2c1OC[C@@H]3c1ccccn1 100 to 1000 nM

Now the molecule Cc1noc(C)c1-c1ccc2nc(C(=O)OC(C)(C)C)n3c2c1OC[C@@H]3c1ccccn1 < 100 nM

Now the molecule COc1ccc(CNCc2cc(-c3c(C)noc3C)c3c4c2[nH]c(=O)n4C(c2ccccn2)CO3)cc1 (centres unmarked) 100 to 1000 nM

Now the molecule Cc1noc(C)c1-c1ccc2[nH]c(=O)n3c2c1OC(C(=O)NCCO)C3c1ccccc1 (single isomer, unassigned) [Example 48A] 100 to 1000 nM

Now the molecule Cc1noc(C)c1-c1ccc2[nH]c(=O)n3c2c1OCC3(C(N)=O)c1ccccn1 (centres unmarked) [Example 74, 2,2,2-trifluoroacetate] 100 to 1000 nM

Now the molecule Cc1noc(C)c1-c1cc(-c2ccc(C(=O)N(C)C)nc2)c2[nH]c(=O)n3c2c1OC[C@@H]3c1ccccn1 100 to 1000 nM
